Where do the numbers come from? From the NIST ThermoML archive (doi:10.1021/acs.jced.7b00466).

details: 323.15 K; 102 kPa; Liquid; Vibrating tube method
readout-type: mass density (kg/m3)

chemical-string: CCCCCCCCCCCCCCCC
unit-of-measurement: kg/m3
val: 752.63
--
chemical-string: CCCCCCc1ccccc1
unit-of-measurement: kg/m3
val: 834.87
--
chemical-string: CCCCCCCCCCCC
unit-of-measurement: kg/m3
val: 726.94
--
chemical-string: CCCCC1CCCCC1
unit-of-measurement: kg/m3
val: 776.7
--
chemical-string: CCCCc1ccccc1
unit-of-measurement: kg/m3
val: 836.41

----------
conditions: 323.15 K; 102 kPa; Liquid; Frequency=3 MHz; Sing-around technique in a fixed-path interferometer
readout-type: speed of sound (m/s)

molecule: CCCCC1CCCCC1 [butylcyclohexane]
unit-of-measurement: m/s
speed of sound: 1210.3
//
molecule: CCCCc1ccccc1 [butylbenzene]
unit-of-measurement: m/s
speed of sound: 1238.2
//
molecule: CCCCCCCCCCCCCCCC [hexadecane]
unit-of-measurement: m/s
speed of sound: 1246.9
//
molecule: CCCCCCCCCCCC [dodecane]
unit-of-measurement: m/s
speed of sound: 1184.4
//
molecule: CCCCCCc1ccccc1 [hexylbenzene]
unit-of-measurement: m/s
speed of sound: 1264.3

----------
conditions: 293.15 K; 102 kPa; Liquid; Vibrating tube method
readout-type: mass density (kg/m3)

molecule: CCCCCCc1ccccc1 [hexylbenzene]
mass density [kg/m3]: 857.69

molecule: CCCCC1CCCCC1 [butylcyclohexane]
mass density [kg/m3]: 799.33

molecule: CCCCc1ccccc1 [butylbenzene]
mass density [kg/m3]: 860.6

molecule: CCCCCCCCCCCCCCCC [hexadecane]
mass density [kg/m3]: 773.42

molecule: CCCCCCCCCCCC [dodecane]
mass density [kg/m3]: 748.79

----------
conditions: 343.15 K; 102 kPa; Liquid; Vibrating tube method
readout-type: mass density (kg/m3)

chemical-string: CCCCCCCCCCCCCCCC
unit-of-measurement: kg/m3
mass density: 738.8
--
chemical-string: CCCCc1ccccc1
unit-of-measurement: kg/m3
mass density: 820.3
--
chemical-string: CCCCCCCCCCCC
unit-of-measurement: kg/m3
mass density: 712.2
--
chemical-string: CCCCC1CCCCC1
unit-of-measurement: kg/m3
mass density: 761.4
--
chemical-string: CCCCCCc1ccccc1
unit-of-measurement: kg/m3
mass density: 819.5

----------
conditions: 303.15 K; 102 kPa; Liquid; Frequency=3 MHz; Sing-around technique in a fixed-path interferometer
readout-type: speed of sound (m/s)

chemical-string: CCCCCCCCCCCC
speed of sound, m/s: 1259.1

chemical-string: CCCCc1ccccc1
speed of sound, m/s: 1314

chemical-string: CCCCCCc1ccccc1
speed of sound, m/s: 1337.3

chemical-string: CCCCC1CCCCC1
speed of sound, m/s: 1287.9

chemical-string: CCCCCCCCCCCCCCCC
speed of sound, m/s: 1319

----------
settings: 333.15 K; 102 kPa; Liquid; Concentric cylinders viscometry
readout-type: viscosity (mPa·s)

Example results:
chemical-string: CCCCC1CCCCC1
unit-of-measurement: mPa·s
viscosity: 0.736

chemical-string: CCCCCCc1ccccc1
unit-of-measurement: mPa·s
viscosity: 0.901

chemical-string: CCCCc1ccccc1
unit-of-measurement: mPa·s
viscosity: 0.631

(I) CCCCCCCCCCCC
(II) CCCCCCCCCCCCCCCC
Of I and II , whose reported viscosity is the larger number? Indicate which entry you chose by stating its label. II

----------
details: 313.15 K; 102 kPa; Liquid; Concentric cylinders viscometry
readout-type: viscosity (mPa·s)

Example results:
chemical-string: CCCCc1ccccc1
unit-of-measurement: mPa·s
viscosity: 0.801

chemical-string: CCCCCCCCCCCC
unit-of-measurement: mPa·s
viscosity: 1.05

chemical-string: CCCCCCc1ccccc1
unit-of-measurement: mPa·s
viscosity: 1.2

(1) CCCCCCCCCCCCCCCC
(2) CCCCC1CCCCC1
Could you tell me which of 1 and 2 has the lower viscosity reading? Indicate which entry you chose by stating its label. 2
(2: 0.961 mPa·s, 1: 2.2 mPa·s)

----------
conditions: 323.15 K; 102 kPa; Liquid; Concentric cylinders viscometry
readout-type: viscosity (mPa·s)

compound: CCCCc1ccccc1 [butylbenzene]
viscosity, mPa·s: 0.708

compound: CCCCCCc1ccccc1 [hexylbenzene]
viscosity, mPa·s: 1.03

compound: CCCCC1CCCCC1 [butylcyclohexane]
viscosity, mPa·s: 0.837

(I) CCCCCCCCCCCC [dodecane]
(II) CCCCCCCCCCCCCCCC [hexadecane]
Could you tell me which of I and II has the lower viscosity reading? Indicate which entry you chose by stating its label. I

----------
conditions: 303.15 K; 102 kPa; Liquid; Vibrating tube method
readout-type: mass density (kg/m3)

compound: CCCCCCCCCCCCCCCC [hexadecane]
val: 766.47
//
compound: CCCCCCc1ccccc1 [hexylbenzene]
val: 850.09
//
compound: CCCCc1ccccc1 [butylbenzene]
val: 852.56
//
compound: CCCCC1CCCCC1 [butylcyclohexane]
val: 791.82
//
compound: CCCCCCCCCCCC [dodecane]
val: 741.54

----------
conditions: 313.15 K; 102 kPa; Liquid; Vibrating tube method
readout-type: mass density (kg/m3)

chemical-string: CCCCCCCCCCCCCCCC
unit-of-measurement: kg/m3
mass density: 759.55
--
chemical-string: CCCCCCc1ccccc1
unit-of-measurement: kg/m3
mass density: 842.49
--
chemical-string: CCCCCCCCCCCC
unit-of-measurement: kg/m3
mass density: 734.25
--
chemical-string: CCCCC1CCCCC1
unit-of-measurement: kg/m3
mass density: 784.28
--
chemical-string: CCCCc1ccccc1
unit-of-measurement: kg/m3
mass density: 844.5

----------
details: 343.15 K; 102 kPa; Liquid; Concentric cylinders viscometry
readout-type: viscosity (mPa·s)

Example results:
chemical-string: CCCCCCCCCCCC
unit-of-measurement: mPa·s
viscosity: 0.69

chemical-string: CCCCCCc1ccccc1
unit-of-measurement: mPa·s
viscosity: 0.794

chemical-string: CCCCc1ccccc1
unit-of-measurement: mPa·s
viscosity: 0.566

(a) CCCCC1CCCCC1
(b) CCCCCCCCCCCCCCCC
Of a and b , whose reported viscosity is the larger number? Indicate which entry you chose by stating its label. b
(b: 1.31 mPa·s, a: 0.653 mPa·s)

----------
settings: 333.15 K; 102 kPa; Liquid; Vibrating tube method
readout-type: mass density (kg/m3)

chemical-string: CCCCc1ccccc1
mass density / kg/m3: 828.29
//
chemical-string: CCCCC1CCCCC1
mass density / kg/m3: 769.09
//
chemical-string: CCCCCCCCCCCCCCCC
mass density / kg/m3: 745.71
//
chemical-string: CCCCCCc1ccccc1
mass density / kg/m3: 827.48
//
chemical-string: CCCCCCCCCCCC
mass density / kg/m3: 719.59

----------
details: 293.15 K; 102 kPa; Liquid; Concentric cylinders viscometry
readout-type: viscosity (mPa·s)

Example results:
chemical-string: CCCCCCc1ccccc1
viscosity, mPa·s: 1.68
--
chemical-string: CCCCc1ccccc1
viscosity, mPa·s: 1.06

(1) CCCCCCCCCCCC
(2) CCCCCCCCCCCCCCCC
Of 1 and 2 , whose reported viscosity is the larger number? Indicate which entry you chose by stating its label. 2

----------
conditions: 313.15 K; 102 kPa; Liquid; Frequency=3 MHz; Sing-around technique in a fixed-path interferometer
readout-type: speed of sound (m/s)

chemical-string: CCCCCCCCCCCC
readout-type: speed of sound
unit-of-measurement: m/s
val: 1221.5
//
chemical-string: CCCCc1ccccc1
readout-type: speed of sound
unit-of-measurement: m/s
val: 1275.8
//
chemical-string: CCCCC1CCCCC1
readout-type: speed of sound
unit-of-measurement: m/s
val: 1248.7
//
chemical-string: CCCCCCCCCCCCCCCC
readout-type: speed of sound
unit-of-measurement: m/s
val: 1282.6
//
chemical-string: CCCCCCc1ccccc1
readout-type: speed of sound
unit-of-measurement: m/s
val: 1300.5

----------
details: 303.15 K; 102 kPa; Liquid; Concentric cylinders viscometry
readout-type: viscosity (mPa·s)

chemical-string: CCCCc1ccccc1
unit-of-measurement: mPa·s
viscosity: 0.915

chemical-string: CCCCCCCCCCCC
unit-of-measurement: mPa·s
viscosity: 1.23

(P) CCCCC1CCCCC1
(Q) CCCCCCCCCCCCCCCC
Could you tell me which of P and Q has the lower viscosity reading? Indicate which entry you chose by stating its label. P
(P: 1.11 mPa·s, Q: 2.72 mPa·s)

----------
details: 293.15 K; 102 kPa; Liquid; Frequency=3 MHz; Sing-around technique in a fixed-path interferometer
readout-type: speed of sound (m/s)

chemical-string: CCCCCCc1ccccc1
unit-of-measurement: m/s
speed of sound: 1374.7
--
chemical-string: CCCCCCCCCCCCCCCC
unit-of-measurement: m/s
speed of sound: 1356.4
--
chemical-string: CCCCc1ccccc1
unit-of-measurement: m/s
speed of sound: 1352.8
--
chemical-string: CCCCC1CCCCC1
unit-of-measurement: m/s
speed of sound: 1327.7
--
chemical-string: CCCCCCCCCCCC
unit-of-measurement: m/s
speed of sound: 1297.3
